Test system: Escherichia coli TOP10;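 note: peptides expressed intracellularly from a pBAD plasmid library in pooled LB shake-flask culture, induced with 0.3% L-arabinose, DNA abundance read by NGS, three biological replicates, DESeq2 with apeglm shrinkage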
Assay: shrunken log2 fold change of peptide-encoding DNA abundance (4.5 h post-induction vs induction); higher = less antimicrobial activity (less host growth inhibition)
Conditions: time post-induction: 4.5 h; library: site-saturation at positions 5, 18, 19, 20
// false (0) strictly below -0.1 in shrunken log2 fold change; true (1) otherwise

seq text	label
RRIRLRPPRLPRPRPRPHHSPRP	false (0)
RRIRDRPPRLPRPRPRPSLHPRP	true (1)

Lookup: Determine whether this sequence has shrunken log2 fold change no lower than -0.1: RRIRNRPPRLPRPRPRPNKRPRP
Found: false (0)

Lookup: Determine whether this sequence has shrunken log2 fold change no lower than -0.1: RRIRDRPPRLPRPRPRPAHDPRP
Found: true (1)

Lookup: Determine whether this sequence has shrunken log2 fold change no lower than -0.1: RRIRWRPPRLPRPRPRPHPGPRP
Found: true (1)

Lookup: Determine whether this sequence has shrunken log2 fold change no lower than -0.1: RRIRERPPRLPRPRPRPVMPPRP
Found: false (0)
